target: Human recombinant PDE10A2 (Homo sapiens (Human), UniProt Q9Y233); experiment: In vitro hPDE10a: human recombinant PDE10A2 scintillation proximity assay, IC50; settings: human recombinant PDE10A2, SPA, 60 nM cAMP; read-out: hPDE10a2 IC50
Sequence (Q9Y233 267-1055): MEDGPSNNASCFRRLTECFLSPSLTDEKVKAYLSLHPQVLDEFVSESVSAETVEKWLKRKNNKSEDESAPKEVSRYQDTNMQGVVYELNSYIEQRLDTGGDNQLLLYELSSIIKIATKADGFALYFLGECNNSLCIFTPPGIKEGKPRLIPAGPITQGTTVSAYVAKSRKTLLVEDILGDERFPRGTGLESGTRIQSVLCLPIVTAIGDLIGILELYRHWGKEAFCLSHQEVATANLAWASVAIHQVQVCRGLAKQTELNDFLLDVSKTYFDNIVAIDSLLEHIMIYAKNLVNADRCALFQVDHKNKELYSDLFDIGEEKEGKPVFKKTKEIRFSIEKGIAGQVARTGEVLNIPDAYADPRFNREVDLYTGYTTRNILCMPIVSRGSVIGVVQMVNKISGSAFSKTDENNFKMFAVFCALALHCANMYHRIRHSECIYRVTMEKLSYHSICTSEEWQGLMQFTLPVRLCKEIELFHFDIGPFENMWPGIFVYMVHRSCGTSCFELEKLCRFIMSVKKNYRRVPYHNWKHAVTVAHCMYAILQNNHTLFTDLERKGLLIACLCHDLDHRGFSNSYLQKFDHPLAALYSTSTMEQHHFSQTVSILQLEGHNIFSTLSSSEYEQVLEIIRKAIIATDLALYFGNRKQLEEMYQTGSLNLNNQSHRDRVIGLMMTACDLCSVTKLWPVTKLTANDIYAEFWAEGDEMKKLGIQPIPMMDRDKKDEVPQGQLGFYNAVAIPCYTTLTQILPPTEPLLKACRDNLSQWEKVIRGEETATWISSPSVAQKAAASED
Where a name gives a salt, the structure may show the parent alone.
Record form. Attribute: pIC50. Fill in for each entry.
To interpret pIC50, take it as minus log10 of a concentration measured in moles per litre.

Noted for `COc1cc(-c2c(CCc3ccc4ccccc4n3)nc3c(N4CCOCC4)ccnn23)ccc1C(=O)O` : its pIC50 reads 8.22

// `OC(c1ccc(-c2c(/C=C/c3ccc4ccccc4n3)nc3c(N4CCOCC4)ccnn23)cc1)(C(F)(F)F)C(F)(F)F` : pIC50 value = 7.28

pIC50 recorded for this compound, CC(C)[C@H](NC(=O)c1ccc(-c2c(C#Cc3ccc4ccccc4n3)nc3c(N4CCOCC4)ccnn23)cc1)C(=O)O [Cpd 101, trifluoroacetic acid salt] , is 8.40

pIC50 measured on `O=C(O)c1ccc(-c2c(CCc3ccc4ccccc4n3)nc3c(N4CCOCC4)ccnn23)cc1` = 9.00

Measured pIC50 of `CS(=O)(=O)NC(=O)c1ccc(-c2c(/C=C/c3ccc4ccccc4n3)nc3c(N4CCOCC4)ccnn23)cc1` : 8.30

The recorded pIC50 for O=C(O)c1ccc(-c2c(/C=C/c3ccc4c(n3)CCCC4)nc3c(N4CCOCC4)ccnn23)cn1 [Cpd 107, trifluoroacetic acid salt] is 7.92

The reported pIC50 of the compound `COc1cc2ccccc2nc1/C=C/c1nc2c(N3CCOCC3)ccnn2c1-c1ccc(C(=O)O)cc1` was 8.22

So for `O=C(O)c1cc2ccccc2nc1/C=C/c1cn2nc(Cl)cc(N3CCOCC3)c2n1` , the logged pIC50 turned out to be 9.00

Recorded pIC50 (compound c1ccc2nc(CCc3nc4c(N5CCOCC5)ccnn4c3-c3ccc(-c4nnn[nH]4)nc3)ccc2c1 [Cpd 31, trifluoroacetic acid salt] ): 9.00

Please fill in: pIC50 reported for O=C(O)CNc1ccc(-c2c(C#Cc3ccc4ccccc4n3)nc3c(N4CCOCC4)ccnn23)cn1 [Cpd 24, trifluoroacetic acid salt] = 9.00

// recorded pIC50 for O=S(=O)(Cc1nc2c(N3CCOCC3)ccnn2c1-c1ccc(N2CCNCC2)nc1)c1ccc2ccccc2n1 [Cpd 9, trifluoroacetic acid salt] : 6.37

Recorded result, `CS(=O)(=O)NC(=O)c1ccc(-c2c(/C=C/c3ccc4ccccc4n3)nc3c(N4CCOCC4)ccnn23)cc1F` , pIC50: 8.40

----------
assay: PDE10a perfused brain permeability study: plasma concentrations at 30 and 120 min, brain concentration at 120 min, brain/plasma ratio; conditions: male, Sprague-Dawley, rat, brain/plasma
test.readout: Kp at 2 h
API note: the answer field is a bare number with no unit suffix.

Just so you know, measured Kp at 2 h for `CS(=O)(=O)NC(=O)c1ccc(-c2c(/C=C/c3ccc4ccccc4n3)nc3c(N4CCOCC4)ccnn23)cc1` came out at 0

Sure, the documented Kp at 2 h for `O=C(O)c1ccc(-c2c(/C=C/c3ccc4ccccc4n3)nc3c(N4CCOCC4)ccnn23)cc1F` is 0

Documented Kp at 2 h of `CS(=O)(=O)NC(=O)c1ccc(-c2c(C#Cc3ccc4ccccc4n3)nc3c(N4CCOCC4)ccnn23)cc1` : 0

Lab note: `Oc1nc(O)c(-c2ccc(-c3c(/C=C/c4ccc5ccccc5n4)nc4c(N5CCOCC5)ccnn34)cc2)o1` gave Kp at 2 h of 0.01

----------
target: Rat recombinant PDE10a (rPDE10a) (Rattus norvegicus (Rat), UniProt Q9QYJ6); experiment: In vitro assay PDE10a: rat recombinant PDE10a SPA with 3H-cAMP substrate, IC50; type: biochemical; conditions: 60 nM cAMP, read-out: rPDE10a2 IC50
Sequence (Q9QYJ6 whole entry): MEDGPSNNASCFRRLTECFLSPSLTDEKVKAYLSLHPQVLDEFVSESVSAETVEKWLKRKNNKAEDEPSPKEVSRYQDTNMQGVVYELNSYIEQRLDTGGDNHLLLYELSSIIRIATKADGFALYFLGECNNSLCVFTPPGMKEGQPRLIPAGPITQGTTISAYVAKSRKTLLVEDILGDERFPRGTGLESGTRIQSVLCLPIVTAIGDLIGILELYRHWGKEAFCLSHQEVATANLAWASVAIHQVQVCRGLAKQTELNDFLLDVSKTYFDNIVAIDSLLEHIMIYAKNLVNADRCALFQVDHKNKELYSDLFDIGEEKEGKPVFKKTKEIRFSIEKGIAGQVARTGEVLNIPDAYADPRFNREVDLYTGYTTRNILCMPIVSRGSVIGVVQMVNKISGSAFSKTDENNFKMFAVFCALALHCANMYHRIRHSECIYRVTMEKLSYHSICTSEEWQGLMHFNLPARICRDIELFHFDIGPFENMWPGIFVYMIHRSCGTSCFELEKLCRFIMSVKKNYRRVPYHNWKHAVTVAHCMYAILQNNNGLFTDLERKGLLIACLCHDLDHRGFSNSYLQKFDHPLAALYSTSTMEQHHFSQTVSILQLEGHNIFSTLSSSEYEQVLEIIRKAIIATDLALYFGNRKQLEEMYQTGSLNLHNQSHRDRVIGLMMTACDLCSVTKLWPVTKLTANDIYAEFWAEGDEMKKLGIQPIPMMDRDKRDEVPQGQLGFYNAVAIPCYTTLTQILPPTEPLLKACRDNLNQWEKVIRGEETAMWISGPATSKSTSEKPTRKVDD
I'd appreciate it if you could supply IC50 values for the items below.
# number only, unit nM dropped from output

Record `O=C(O)c1ccc(-c2c(/C=C/c3ccccn3)nc3c(N4CCOCC4)ccnn23)cc1` . Reported IC50: 62

Reported IC50 ( `O=C(O)CNC(=O)c1ccc(-c2c(/C=C/c3ccc4ccccc4n3)nc3c(N4CCOCC4)ccnn23)cc1` ) = 5

Value of IC50 reported for the compound `C(=C\c1nc2c(N3CCOCC3)ccnn2c1-c1ccc(-c2nnn[nH]2)nc1)/c1ccc2ccccc2n1` is 3

The compound listed as `O=C(O)CCNC(=O)c1ccc(-c2c(C#Cc3ccc4ccccc4n3)nc3c(N4CCOCC4)ccnn23)cc1` shows IC50 equal to 2

----------
molecular target: Rat recombinant PDE10a (rPDE10a) (Rattus norvegicus (Rat), UniProt Q9QYJ6); test: In vitro assay PDE10a: rat recombinant PDE10a SPA with 3H-cAMP substrate, IC50; details: 60 nM cAMP, read-out: rPDE10a2 IC50
Structures can show the parent of a compound that is named as a salt.
Give measured pIC50 for each item. Keep answers brief.
// field semantics: pIC50 = negative decimal log of concentration (mol/L)

pIC50 reported for this molecule O=C(O)c1ccc(Nc2c(/C=C/c3ccc4ccccc4n3)nc3c(N4CCOCC4)ccnn23)c(F)c1 [Cpd 139] : 8.70

pIC50 for O=C(O)[C@@H]1CCCN1C(=O)c1ccc(-c2c(CCc3ccc4ccccc4n3)nc3c(N4CCOCC4)ccnn23)cc1 [Cpd 72, trifluoroacetic acid salt] is 8.10

Entry O=C(O)CCc1ccc(-c2c(/C=C/c3ccc4ccccc4n3)nc3c(N4CCOCC4)ccnn23)cc1 [Cpd 128] ; pIC50 = 8.30

Reported pIC50 ( O=C(O)CNC(=O)c1ccc(-c2c(CCc3ccc4ccccc4n3)nc3c(N4CCOCC4)ccnn23)cc1 [Cpd 68, trifluoroacetic acid salt] ) = 8.22

GET /value?item= COc1cc(-c2c(/C=C/c3ccc4ccccc4n3)nc3c(N4CCOCC4)ccnn23)ccc1C(=O)O [compound 67] &field=pIC50 returns 8.30

Cn1nc(-c2ccc(-c3c(CCc4ccc5ccccc5n4)nc4c(N5CCOCC5)ccnn34)cc2)[nH]c1=O [Cpd 78] has a reported pIC50 of 7.70

Documented pIC50 of O=C(O)CCC(=O)Nc1ccc(-c2c(CCc3ccc4ccccc4n3)nc3c(N4CCOCC4)ccnn23)cc1 [compound 49] : 8.40

Recorded pIC50 (molecule O=C(O)c1ccc(-c2c(/C=C/c3ccc4ccccc4n3)nc3c(N4CCOCC4)ccnn23)s1 [Cpd 57] ): 9.00

----------
target: Rat recombinant PDE10a (rPDE10a) (Rattus norvegicus (Rat), UniProt Q9QYJ6); test: In vitro assay PDE10a: rat recombinant PDE10a SPA with 3H-cAMP substrate, IC50; details: 60 nM cAMP, read-out: rPDE10a2 IC50
Structures can show the parent of a compound that is named as a salt.
test.readout: IC50 (nM)
Number only, in nM; omit the unit.

Form: compound = O=C(O)c1ccc(-c2c(CCc3ccc4c(n3)CCCC4)nc3c(N4CCOCC4)ccnn23)cc1 [Cpd 79, trifluoroacetic acid salt] ; IC50 = 8

Sample O=C(O)C1CCN(c2ccc(-c3c(/C=C/c4ccc5ccccc5n4)nc4c(N5CCOCC5)ccnn34)cc2)CC1 [Cpd 100, trifluoroacetic acid salt] ; IC50 observed: 6

response.value for `C(=C\c1nc2c(N3CCOCC3)ccnn2c1-c1ccc(Sc2cnn[nH]2)nc1)/c1ccc2ccccc2n1` (field: IC50) = 6

----------
target: Human recombinant PDE10A2 (Homo sapiens (Human), UniProt Q9Y233); experiment: In vitro hPDE10a: human recombinant PDE10A2 scintillation proximity assay, IC50; details: human recombinant PDE10A2, SPA, 60 nM cAMP; read-out: hPDE10a2 IC50
Structures can show the parent of a compound that is named as a salt.
Please go through the items and note down their IC50.
Just the number in nM, nothing appended.

Per the record, `O=C(O)c1cccc(-c2c(/C=C/c3ccc4ccccc4n3)nc3c(N4CCOCC4)ccnn23)c1` has IC50 of 4

Short answer for `CN(C)c1ccc(-c2c(COc3ccc4ccccc4n3)nc3c(N4CCOCC4)ccnn23)cn1` : IC50 was 126

For reference, reported IC50 for O=C(O)c1ccc(-c2c([C@@H]3C[C@@H]3c3ccc4ccccc4n3)nc3c(N4CCOCC4)cc(Cl)nn23)cc1 [Cpd 147, trifluoroacetic acid salt] stands at 7

response.value for `O=C(O)CCC(=O)Nc1ccc(-c2c(CCc3ccc4ccccc4n3)nc3c(N4CCOCC4)ccnn23)cc1` (field: IC50) = 4

Recorded result, `O=C(O)CNc1ccc(-c2c(/C=C/c3ccc4ccccc4n3)nc3c(N4CCOCC4)ccnn23)cn1` , IC50: 3

Entry `CS(=O)(=O)NC(=O)c1ccc(-c2c(C#Cc3ccc4ccccc4n3)nc3c(N4CCOCC4)ccnn23)cc1` ; IC50 = 1

----------
Record form. Attribute: pIC50. Fill in for each entry.
target: Human recombinant PDE10A2 (Homo sapiens (Human), UniProt Q9Y233); assay: In vitro hPDE10a: human recombinant PDE10A2 scintillation proximity assay, IC50; settings: human recombinant PDE10A2, SPA, 60 nM cAMP; read-out: hPDE10a2 IC50
// field semantics: pIC50 = negative decimal log of concentration (mol/L)

The recorded pIC50 for entry CC(=O)c1ccc(-c2c(C#Cc3ccc4ccccc4n3)nc3c(N4CCOCC4)ccnn23)cc1 [Cpd 159] equals 8.05

Noted for O=C(O)[C@H]1C[C@@H]1c1ccc(-c2c([C@H]3C[C@H](c4ccc5ccccc5n4)C3)nc3c(N4CCOCC4)ccnn23)cc1 [Cpd 170] : its pIC50 reads 9.00

GET /value?item= O=C(O)CCc1ccc(-c2c(/C=C/c3ccc4ccccc4n3)nc3c(N4CCOCC4)ccnn23)cc1 [Cpd 128] &field=pIC50 returns 8.30

Value of measured pIC50 for the entry O=C(O)C1CCC(Nc2c(/C=C/c3ccc4ccccc4n3)nc3c(N4CCOCC4)ccnn23)CC1 (centres unmarked) [Cpd 152] : 8.15

# pIC50 (molecule: O=c1[nH]nc(-c2ccc(-c3c(/C=C/c4ccc5ccccc5n4)nc4c(N5CCOCC5)ccnn34)cc2F)[nH]1 [Cpd 162] ) is 8.05

Per the records, this molecule ( Oc1nc(O)c(-c2ccc(-c3c(/C=C/c4ccc5ccccc5n4)nc4c(N5CCOCC5)ccnn34)cc2)o1 [Cpd 65] ) has pIC50 equal to 8.00

The measurements presented in this section are drawn from patent US9193736B2.
